All values here come from paper PMC9655874.

Target: elastase of R. ferrugineus midgut
Test: Serine proteinase specific activity, elastase (in vitro)
Type: biochemical, Rhynchophorus ferrugineus
Conditions: 4th instar midgut homogenate
Endpoint label: IC50 elastase (in vitro) (µg/mL)
One number for each entry, in µg/mL.

C=CCc1ccc(O)c(OC)c1	165.7
C=CC(C)(O)CCC=C(C)C (centres unmarked)	104.2
CC1=CCC(C(C)C)=CC1	154.3

Provide IC50 elastase (in vitro) for all items below, preserving their order.
1. CC12CCC(CC1)C(C)(C)O2
2. C=C(C)C1CCC(C)(O)CC1 (centres unmarked)

## Result
[119.4, 112.6]

* * *

Biological target: metalloprotease of R. ferrugineus midgut
Assay: Metalloproteinase specific activity, CEGR substrate (in vitro)
Conditions: 4th instar midgut homogenate
Label criterion met when IC50 metalloprotease (in vitro) is strictly below 300 µg/mL; at or above that, label criterion not met.

Solved entries:
CC(C)=CCC/C(C)=C\CO [nerol]	criterion met
C=CCc1ccc(OC)cc1 [estragole]	criterion not met
C=C(C)C1CCC(C)(O)CC1 (stereo not drawn) [β-terpineol]	criterion not met
C=CCc1ccc(O)c(OC)c1 [eugenol]	criterion not met
C=C1CC/C=C(\C)CC[C@@H]2[C@@H]1CC2(C)C [β-caryophyllene]	criterion not met

## Task Would you kindly verify if IC50 metalloprotease (in vitro) of C=CC(C)(O)CCC=C(C)C (stereo not shown) [linalool] is strictly less than 300 µg/mL?
## Result criterion met

## Task # check: IC50 metalloprotease (in vitro) < 300 µg/mL for CC1=CCC(C(C)C)=CC1 [γ-terpinene]
## Result criterion not met

## Task For this compound, is IC50 metalloprotease (in vitro) lower than 300 µg/mL? C=C(C)C1CCC(C)C2=C(C1)C(C)CC2 (stereo not drawn) [α-guaiene]
## Result criterion met

## Task Criterion: IC50 metalloprotease (in vitro) strictly below 300 µg/mL. Is it met by C=C1/C=C/[C@H](C(C)C)CC/C(C)=C/CC1 [germacrene D] ?
## Result criterion met

## Task Record C=CC(=C)CCC=C(C)CCC=C(C)C [β-farnesene] : is its IC50 metalloprotease (in vitro) strictly below 300 µg/mL?
## Result criterion met

## Task Strictly below 300 µg/mL in IC50 metalloprotease (in vitro)? CC12CCC(CC1)C(C)(C)O2 [1,8-cineole]
## Result criterion not met

## Task Check if IC50 metalloprotease (in vitro) falls below 300 µg/mL for C=C/C(C)=C/CC=C(C)C [(E)-β-ocimene] .
## Result criterion not met

## Task # strict comparison: is reported IC50 metalloprotease (in vitro) < 300 µg/mL? input = C=C1CCC2CC1C2(C)CCC=C(C)C (stereo not drawn) [β-bergamotene]
## Result criterion met

* * *

Molecular target: total proteases of R. ferrugineus midgut
Test: Total proteolytic enzyme activity of 4th instar midgut homogenate, azocasein (in vitro)
Would you mind telling me the reported IC50 total proteases (in vitro) of each entry?
Numbers only, in µg/mL.

Worked examples, 2 compounds total:
CC1=CCC(C(C)C)=CC1	268.1
CC(C)=CCC/C(C)=C\CO	188.3

## Task Given the compound `C=CC(=C)CCC=C(C)CCC=C(C)C` , what is its reported IC50 total proteases (in vitro)?
## Result 88.6
